- Experimental target: T1, monkey GPC3 on HEK293T-monkey GPC3 cells (monkey)
- T1 construct: whole, on cells
- Protocol notes: FACS on HEK293T-monkey GPC3 cells;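 further: flow cytometry binding of test antibodies to the cells, read as mean fluorescence intensity, with half-maximal concentration taken from fitted curves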
Quantity measured: Max MFI (MFI)
Expressed in MFI, but write only the number.

Sample answers from the record:
F1.136.7 (antibody, human IgG1, kappa, V domains shown, Human-murine chimeric antibody) VH: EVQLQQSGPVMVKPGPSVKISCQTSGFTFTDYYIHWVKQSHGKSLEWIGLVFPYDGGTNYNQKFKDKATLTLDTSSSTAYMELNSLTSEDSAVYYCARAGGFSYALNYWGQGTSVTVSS VL: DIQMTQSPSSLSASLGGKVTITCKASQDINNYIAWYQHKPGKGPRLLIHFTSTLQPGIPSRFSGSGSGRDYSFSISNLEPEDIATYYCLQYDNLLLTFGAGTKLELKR; 6480
F4.26.1 (antibody, human IgG1, kappa, V domains shown, Human-murine chimeric antibody) VH: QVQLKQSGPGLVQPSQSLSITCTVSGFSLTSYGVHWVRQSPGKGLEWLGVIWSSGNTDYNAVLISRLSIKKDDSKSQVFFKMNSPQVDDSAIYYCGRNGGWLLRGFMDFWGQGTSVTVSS VL: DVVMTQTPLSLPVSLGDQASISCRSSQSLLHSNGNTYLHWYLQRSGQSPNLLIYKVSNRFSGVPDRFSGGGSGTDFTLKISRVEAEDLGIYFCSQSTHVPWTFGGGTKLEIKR; 50500
F1.73.9 (antibody, human IgG1, kappa, V domains shown, Human-murine chimeric antibody) VH: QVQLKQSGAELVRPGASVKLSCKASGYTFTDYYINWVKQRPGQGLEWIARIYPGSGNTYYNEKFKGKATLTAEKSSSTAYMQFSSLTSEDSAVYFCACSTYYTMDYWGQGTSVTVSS VL: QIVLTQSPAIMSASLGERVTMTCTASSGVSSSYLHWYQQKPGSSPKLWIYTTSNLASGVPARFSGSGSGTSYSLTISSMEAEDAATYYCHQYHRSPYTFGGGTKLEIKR; 5700
F1.41.17 (antibody, human IgG1, kappa, V domains shown, Human-murine chimeric antibody) VH: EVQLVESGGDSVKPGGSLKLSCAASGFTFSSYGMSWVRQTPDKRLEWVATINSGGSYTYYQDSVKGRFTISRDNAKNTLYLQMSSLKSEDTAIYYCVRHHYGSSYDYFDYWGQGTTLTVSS VL: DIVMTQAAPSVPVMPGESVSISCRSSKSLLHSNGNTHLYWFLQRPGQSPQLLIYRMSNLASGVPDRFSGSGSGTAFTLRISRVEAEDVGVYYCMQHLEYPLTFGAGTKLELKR; 6210

QUERY: Max MFI for F1.92.17 (antibody, human IgG1, kappa, V domains shown, Human-murine chimeric antibody) VH: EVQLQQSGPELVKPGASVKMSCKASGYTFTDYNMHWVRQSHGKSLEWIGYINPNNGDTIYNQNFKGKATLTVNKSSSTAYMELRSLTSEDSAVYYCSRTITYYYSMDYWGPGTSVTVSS VL: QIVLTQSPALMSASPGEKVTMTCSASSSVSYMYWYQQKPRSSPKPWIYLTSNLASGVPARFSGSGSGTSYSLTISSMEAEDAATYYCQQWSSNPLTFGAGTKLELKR ?
RESULT: 5520
